System: SK-MEL-147 cells
Assay overview: cells
Assay type: cell-based, human
Experimental setup: Homo sapiens, SK-MEL-147; 96 h, average of n >= 3; read-out: cell viability IC50
Observed property: IC50
Express your answer as a number followed by its unit.

stdin: Request the reported IC50 associated with CNC(=O)c1ccc(Nc2ncc(C(F)(F)F)c(NCc3nccnc3N(C)S(C)(=O)=O)n2)cc1
stdout: 2840 nM

###

Test system: trypsin
Assay overview: Trypsin proteolytic resistance assay
Experimental setup: immobilized trypsin-agarose resin
Bridge positions count the residues as written; N and C are the ends. Square brackets hold non-standard residues; d marks the D form. Peptide text beside a SMILES is read from it. * marks the point of attachment. Myristoyl = CCCCCCCCCCCCCC(=O)*; R8 = C=CCCCCCC[C@@](C)(N)C(=O)O; S5 = C=CCCC[C@](C)(N)C(=O)O
Observed property: remaining at 1 h, 100 µM
Write the figure, then the unit, nothing else.

As a guide, the following entries are already answered.
[
  {
    "Molecule": "CC(=O)N[C@@H](CC(N)=O)C(=O)N[C@@H](CC(C)C)C(=O)N[C@@H](CO)C(=O)N[C@@H](CCC(=O)O)C(=O)N[C@@H](CC(C)C)C(=O)N[C@@H](CC(=O)O)C(=O)N[C@@H](CCCNC(=N)N)C(=O)N[C@@H](CC(C)C)C(=O)N[C@@H](CC(C)C)C(=O)N[C@@H](CC(C)C)C(=O)N[C@@H](CCC(=O)O)C(=O)N[C@@H](CC(C)C)C(=O)N[C@@H](CC(N)=O)C(N)=O [LD2, reference compound]",
    "Observed property": "remaining at 1 h, 100 µM",
    "Reported measurement": "29%"
  },
  {
    "Molecule": "CC(=O)N[C@@H](CC(N)=O)C(=O)N[C@@H](CC(C)C)C(=O)N[C@]1(C)CCCCCCC=CCCC[C@@](C)(C(=O)N[C@@H](CCC(=O)O)C(=O)N[C@@H](CC(C)C)C(=O)N[C@@H](CC(N)=O)C(N)=O)NC(=O)[C@H](CC(C)C)NC(=O)[C@H](CC(C)C)NC(=O)[C@H](CCCNC(=N)N)NC(=O)[C@H](CC(=O)O)NC(=O)[C@H](CC(C)C)NC(=O)[C@H](CCC(=O)O)NC1=O",
    "Observed property": "remaining at 1 h, 100 µM",
    "Reported measurement": "72%"
  }
]

API: the following record is the query input.
stdin: Data request, read-out remaining at 1 h, 100 µM, for CCCCCCCCCCCCCC(=O)N[C@@H](CC(N)=O)C(=O)N[C@@H](CC(C)C)C(=O)N[C@]1(C)CCCCCCC=CCCC[C@@](C)(C(=O)N[C@@H](CCC(=O)O)C(=O)N[C@@H](CCC(=O)O)C(=O)N[C@@H](CC(N)=O)C(N)=O)NC(=O)[C@H](CC(C)C)NC(=O)[C@H](CC(C)C)NC(=O)[C@H](CCCNC(=N)N)NC(=O)[C@H](CC(=O)O)NC(=O)[C@H](CCC(=O)O)NC(=O)[C@H](CCC(=O)O)NC1=O [compound 2020] (Myristoyl-NL[R8]EEDRLL[S5]EEN-NH2; staple 3-10)
stdout: 98%
